Target: PPARγ (Homo sapiens (Human))
Sequence (P37231 whole entry, species assumed): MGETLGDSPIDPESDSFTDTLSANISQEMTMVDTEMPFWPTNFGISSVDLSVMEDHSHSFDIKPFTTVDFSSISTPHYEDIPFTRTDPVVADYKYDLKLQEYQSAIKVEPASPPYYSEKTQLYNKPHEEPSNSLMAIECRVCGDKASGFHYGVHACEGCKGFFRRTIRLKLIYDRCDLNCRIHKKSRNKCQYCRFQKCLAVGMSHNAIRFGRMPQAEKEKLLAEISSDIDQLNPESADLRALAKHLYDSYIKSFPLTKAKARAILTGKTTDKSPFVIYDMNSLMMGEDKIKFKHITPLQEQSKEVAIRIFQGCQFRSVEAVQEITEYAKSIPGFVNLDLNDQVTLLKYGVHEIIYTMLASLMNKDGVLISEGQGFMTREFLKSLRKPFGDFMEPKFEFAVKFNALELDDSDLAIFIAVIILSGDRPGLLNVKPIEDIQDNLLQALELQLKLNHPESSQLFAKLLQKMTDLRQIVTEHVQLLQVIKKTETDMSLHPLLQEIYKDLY
Sequence (P19793 whole entry partner, species assumed): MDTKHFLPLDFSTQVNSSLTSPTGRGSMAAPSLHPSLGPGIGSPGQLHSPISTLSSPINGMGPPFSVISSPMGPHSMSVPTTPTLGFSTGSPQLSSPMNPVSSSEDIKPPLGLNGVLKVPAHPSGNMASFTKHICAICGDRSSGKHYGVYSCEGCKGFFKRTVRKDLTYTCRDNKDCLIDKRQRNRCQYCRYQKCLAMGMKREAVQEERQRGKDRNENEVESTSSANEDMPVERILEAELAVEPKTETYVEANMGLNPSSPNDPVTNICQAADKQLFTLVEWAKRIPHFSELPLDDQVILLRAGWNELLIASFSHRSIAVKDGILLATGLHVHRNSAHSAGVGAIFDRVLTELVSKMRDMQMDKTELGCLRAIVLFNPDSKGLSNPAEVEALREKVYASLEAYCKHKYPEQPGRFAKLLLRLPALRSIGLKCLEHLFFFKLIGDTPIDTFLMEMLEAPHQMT
Test: Nuclear receptor reporter gene (luciferase) screening model, PPARγ activation in HepG2 cells
Conditions: HepG2 reporter gene, 6 concentrations
Description: Using a reporter gene method, a screening model for screening a nuclear receptor agonist in living cells is designed on the basis of the principal that a nuclear receptor can activate transcription of its downstream gene after being activated. […] The receptor being activated can induce the expression of the luciferase gene, while the amount of generated luciferase can be determined with its luminescent substrate. […]
measure_name: pEC50
For clarity, pEC50 is expressed as the negative log10 of concentration in mol/L.

# smiles_record, measured_target, measure_name, value
rows = [
    ("CCc1cc(OCCc2coc(-c3ccc(C(F)(F)F)cc3)n2)ccc1CCC(=O)O", "PPARγ (Homo sapiens (Human))", "pEC50", 6.16),
    ("CCc1cc(OCCc2nc(-c3ccc(C#N)cc3)oc2C)ccc1CCC(=O)O", "PPARγ (Homo sapiens (Human))", "pEC50", 7.66),
    ("CCc1cc(OCCc2nc(-c3ccc([N+](=O)[O-])cc3)oc2C)ccc1CCC(=O)O", "PPARγ (Homo sapiens (Human))", "pEC50", 7.60),
    ("CCc1cc(OCCc2nc(-c3ccc(C(F)(F)F)cc3)oc2C)ccc1CCC(=O)O", "PPARγ (Homo sapiens (Human))", "pEC50", 8.30),
]

Challenge: I am curious: what pEC50 value has been reported for CCc1cc(OCCc2nc(-c3ccc(C)cc3)oc2C)ccc1CCC(=O)O ?
Response given: 8.40

Challenge: And what about the molecule CCc1cc(OCCc2nc(-c3ccc(F)cc3)oc2C)ccc1CCC(=O)O ?
Response given: 7.89
